- Tested on: kinases
- test_protocol: KINOMEscan kinase binding assay (Eurofins/DiscoveRx), % Ctrl
- run_conditions: 1 μM; target EGFR(L747-S752del, P753S)
quantity_measured: % Ctrl, EGFR(L747-S752del, P753S) (% Ctrl)
Number only, in % Ctrl; omit the unit.

CN1CCOc2cc3c(cc2Cl)NC(=O)/C3=C\c2[nH]ccc2C(=O)N(C)CC1 | 47
Cc1cc2c([nH]1)/C=C1\C(=O)Nc3ccc(cc31)-c1cnn(C)c1OCCCN(C)C2=O | 98
Cc1cc2c([nH]1)/C=C1\C(=O)Nc3ccc(cc31)-c1c(noc1C(C)C)COCCN(C)C2=O | 80
Cc1cc2c([nH]1)/C=C1\C(=O)Nc3cnc(cc31)-c1cnn(C)c1CN(C)CCN(C)C2=O | 52

Attention now turns to another entry.
# return recorded % Ctrl, EGFR(L747-S752del, P753S) for entry Cc1cc2c([nH]1)/C=C1\C(=O)Nc3cc(Cl)c(cc31)SCCOCCN(C)C2=O
56

* * *

- measured_target: kinases (Homo sapiens, UniProt P36888, D835H)
- Construct: purchased Eurofins/DiscoveRx; host or cells: E. coli BL21-derived host (T7 phage display) for most kinases; HEK-293 for the rest
- test_protocol: KINOMEscan kinase binding assay (Eurofins/DiscoveRx), % Ctrl
- run_conditions: 1 μM; FLT3(D835H)
Reported % Ctrl, FLT3(D835H) values follow for various compounds
Number only, in % Ctrl; omit the unit.

Cc1cc2c([nH]1)/C=C1\C(=O)Nc3ccc(cc31)O[C@@H](C)COCCN(C)C2=O | 32
Cc1cc2c([nH]1)/C=C1\C(=O)Nc3cc(Cl)c(cc31)OCCO[C@@H](C(=O)NC1CCNCC1)CN(C)C2=O | 35
Cc1cc2c([nH]1)/C=C1\C(=O)Nc3ccc(cc31)-c1cnn(C)c1CNCCN(C)C2=O | 0.05
CNC(=O)[C@H]1CN(C)C(=O)c2cc(C)[nH]c2/C=C2\C(=O)Nc3cc(Cl)c(cc32)OCCO1 | 37

# return recorded % Ctrl, FLT3(D835H) for entry Cc1cc2c([nH]1)/C=C1\C(=O)Nc3ccc(cc31)-c1cnn(C)c1CN(C)CCN(C)C2=O
0.05

* * *

- measured_target: kinases (Homo sapiens, UniProt P36888, D835V)
- Construct: purchased Eurofins/DiscoveRx; host or cells: E. coli BL21-derived host (T7 phage display) for most kinases; HEK-293 for the rest
- Sequence (P36888 27-993 D835V): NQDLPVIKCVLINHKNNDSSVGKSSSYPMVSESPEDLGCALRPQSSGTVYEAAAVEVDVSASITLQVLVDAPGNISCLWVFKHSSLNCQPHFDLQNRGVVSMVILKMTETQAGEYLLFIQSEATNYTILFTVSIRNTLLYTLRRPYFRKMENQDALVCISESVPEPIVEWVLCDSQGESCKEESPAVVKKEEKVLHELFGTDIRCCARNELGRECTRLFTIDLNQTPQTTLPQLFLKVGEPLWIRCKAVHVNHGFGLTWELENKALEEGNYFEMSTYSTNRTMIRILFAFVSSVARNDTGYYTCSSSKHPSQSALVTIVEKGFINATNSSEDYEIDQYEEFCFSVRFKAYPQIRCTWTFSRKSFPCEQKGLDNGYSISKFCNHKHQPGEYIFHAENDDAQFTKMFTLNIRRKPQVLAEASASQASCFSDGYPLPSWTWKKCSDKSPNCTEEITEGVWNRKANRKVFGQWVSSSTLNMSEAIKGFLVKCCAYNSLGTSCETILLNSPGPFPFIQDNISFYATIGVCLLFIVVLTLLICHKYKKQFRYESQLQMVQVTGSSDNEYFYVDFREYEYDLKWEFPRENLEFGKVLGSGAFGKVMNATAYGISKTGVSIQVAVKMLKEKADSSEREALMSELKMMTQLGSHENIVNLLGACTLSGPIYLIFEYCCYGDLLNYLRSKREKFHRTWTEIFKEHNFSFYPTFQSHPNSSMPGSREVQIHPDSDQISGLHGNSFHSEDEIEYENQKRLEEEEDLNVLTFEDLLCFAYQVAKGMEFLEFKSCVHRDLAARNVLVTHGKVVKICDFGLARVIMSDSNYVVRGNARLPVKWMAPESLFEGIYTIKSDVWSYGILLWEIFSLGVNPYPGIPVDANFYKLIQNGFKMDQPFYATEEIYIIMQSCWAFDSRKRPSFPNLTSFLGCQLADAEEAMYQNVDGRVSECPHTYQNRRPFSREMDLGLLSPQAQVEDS
- test_protocol: KINOMEscan kinase binding assay (Eurofins/DiscoveRx), % Ctrl
- run_conditions: 1 μM; target FLT3(D835V)
- Protocol: Kinase binding assays were performed at Eurofins/DiscoveRx using the general KINOMEscan Protocol (Fabian, M. A. et al., “A small molecule-kinase interaction map for clinical kinase inhibitors,” Nat. Biotechnol. 2005, 23(3):329-36). For most assays, kinase-tagged T7 phage strains were prepared in an E. coli host derived from the BL21 strain. […] The kinase concentration in the eluates was measured by qPCR. […]
Threshold 1 % Ctrl: % Ctrl, FLT3(D835V) strictly smaller gives y, otherwise n.

CN1CCOc2cc3c(cc2Cl)NC(=O)/C3=C\c2[nH]ccc2C(=O)N(C)CC1 [Ex. 164] | n

# strict comparison: is reported % Ctrl, FLT3(D835V) < 1 % Ctrl? input = Cc1cc2c([nH]1)/C=C1\C(=O)Nc3cnc(cc31)-c1cnn(C)c1CN(C)CCN(C)C2=O [Ex. 172]
y

# strict comparison: is reported % Ctrl, FLT3(D835V) < 1 % Ctrl? input = Cc1cc2c([nH]1)/C=C1\C(=O)Nc3ccc(cc31)-c1c(noc1C(C)C)COCCN(C)C2=O [Ex. 161]
n

# strict comparison: is reported % Ctrl, FLT3(D835V) < 1 % Ctrl? input = Cc1cc2c([nH]1)/C=C1\C(=O)Nc3cc(Cl)c(cc31)SCCOCCN(C)C2=O [Ex. 169]
y

# strict comparison: is reported % Ctrl, FLT3(D835V) < 1 % Ctrl? input = Cc1cc2c([nH]1)/C=C1\C(=O)Nc3ccc(cc31)-c1cnn(C)c1OCCCN(C)C2=O [Ex. 166]
n
